Target: Thrombin (Homo sapiens)
Experiment: Related protease inhibition: Thrombin, fluorogenic substrate
Assay type: biochemical
Conditions: fluorogenic substrate at Km, 25° C.; H1-H3 = % activity at 40 μM; read-out: IC50 (human thrombin) nM
# key: entry, value: activity at 40 µM

Look over these answered cases.
CCNC(=O)c1nn(-c2cccc(OC)n2)c2c1CCN(c1ccc3c(c1)C(=O)N(C)CC3)C2=O [Example 2037] :: > 80%
CCNC(=O)c1nn(-c2cccc(Cl)c2)c2c1CCN(c1ccc(OC)c(CN3CCCCC3)c1)C2=O [Example 1419] :: 20 to 80%
CCNC(=O)c1nn(-c2cccc(Cl)c2)c2c1CCN(c1ccc3c(c1)C(=O)N(C)C1CC3C1)C2=O [Example 1434] :: 20 to 80%

INPUT: Which activity at 40 µM is reported for this compound? CN1CCOc2ccc(N3CCc4c(C(=O)NCC5CC5)nn(-c5cccc(Cl)c5F)c4C3=O)cc2C1=O [Example 2046]
OUTPUT: > 80%
